Ref: patent US20160113931A1

test.target: ROCK1 (Homo sapiens)
Sequence (Q13464 whole entry, species assumed): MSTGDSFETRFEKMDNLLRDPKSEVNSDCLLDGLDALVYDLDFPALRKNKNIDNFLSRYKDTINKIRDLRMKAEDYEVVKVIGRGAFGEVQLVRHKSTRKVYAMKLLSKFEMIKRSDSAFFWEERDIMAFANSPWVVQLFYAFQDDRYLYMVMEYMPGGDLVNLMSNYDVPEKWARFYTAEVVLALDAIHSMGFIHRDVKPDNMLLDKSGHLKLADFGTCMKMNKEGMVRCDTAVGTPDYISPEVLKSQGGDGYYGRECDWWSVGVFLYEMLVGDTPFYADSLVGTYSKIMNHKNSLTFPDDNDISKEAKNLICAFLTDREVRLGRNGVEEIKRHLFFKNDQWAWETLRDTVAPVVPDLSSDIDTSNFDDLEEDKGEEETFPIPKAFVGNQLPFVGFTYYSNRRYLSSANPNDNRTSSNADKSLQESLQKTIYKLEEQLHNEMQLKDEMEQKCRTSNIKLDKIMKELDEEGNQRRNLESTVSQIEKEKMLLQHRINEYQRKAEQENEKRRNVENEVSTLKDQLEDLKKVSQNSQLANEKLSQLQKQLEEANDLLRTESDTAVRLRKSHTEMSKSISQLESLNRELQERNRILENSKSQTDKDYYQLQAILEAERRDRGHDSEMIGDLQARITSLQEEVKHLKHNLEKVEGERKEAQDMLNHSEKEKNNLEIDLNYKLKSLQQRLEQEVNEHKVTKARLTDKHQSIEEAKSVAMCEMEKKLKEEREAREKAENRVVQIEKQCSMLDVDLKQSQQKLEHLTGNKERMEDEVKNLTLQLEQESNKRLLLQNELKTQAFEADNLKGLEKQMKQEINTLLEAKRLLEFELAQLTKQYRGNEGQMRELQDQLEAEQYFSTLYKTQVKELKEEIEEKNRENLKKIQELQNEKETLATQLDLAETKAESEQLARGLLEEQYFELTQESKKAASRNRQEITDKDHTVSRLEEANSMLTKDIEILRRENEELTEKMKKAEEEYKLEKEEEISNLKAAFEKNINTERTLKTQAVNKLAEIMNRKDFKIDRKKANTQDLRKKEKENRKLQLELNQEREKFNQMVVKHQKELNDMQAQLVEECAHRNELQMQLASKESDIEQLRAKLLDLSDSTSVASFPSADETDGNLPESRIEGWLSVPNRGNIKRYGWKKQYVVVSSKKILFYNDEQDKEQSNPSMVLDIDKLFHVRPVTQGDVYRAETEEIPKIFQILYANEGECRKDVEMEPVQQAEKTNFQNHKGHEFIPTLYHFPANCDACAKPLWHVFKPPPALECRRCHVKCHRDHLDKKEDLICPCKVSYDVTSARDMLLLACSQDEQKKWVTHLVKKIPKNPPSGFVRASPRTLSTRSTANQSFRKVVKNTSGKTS
property.measured: IC50 (µM)
Numbers only here, please. The scale is µM.

Exam item: I have this compound here, COc1cc(C2C(C(=O)OCc3ccccc3)=C(C)Nc3nnnn32)ccc1O (stereo not shown) , and I need its recorded IC50.
Marked response: 13.7

###

assay.info: OPC proliferation (MTT assay)
Assay type: cell-based, rat
recorded.conditions: rat, primary oligodendroglial progenitor cells (OPCs), 100 μM, read-out: OPC viability compared with the control group (cytotoxicity)
property.measured: viability at 48 h, 100 µM (%)
Numbers only here, please. The scale is %.

Exam item: I have this compound here, COc1cc(C2C(C(=O)OCc3ccccc3)=C(C)Nc3nnnn32)ccc1O (stereo not shown) , and I need its recorded viability at 48 h, 100 µM.
Marked response: 65
